Molecular target: S-adenosyl-L-homocysteine hydrolase from T. maritima (TmSAHase; iTmSAHase as purified, htTmSAHase after heat treatment) (Thermotoga maritima)
Sequence (O51933 1-404): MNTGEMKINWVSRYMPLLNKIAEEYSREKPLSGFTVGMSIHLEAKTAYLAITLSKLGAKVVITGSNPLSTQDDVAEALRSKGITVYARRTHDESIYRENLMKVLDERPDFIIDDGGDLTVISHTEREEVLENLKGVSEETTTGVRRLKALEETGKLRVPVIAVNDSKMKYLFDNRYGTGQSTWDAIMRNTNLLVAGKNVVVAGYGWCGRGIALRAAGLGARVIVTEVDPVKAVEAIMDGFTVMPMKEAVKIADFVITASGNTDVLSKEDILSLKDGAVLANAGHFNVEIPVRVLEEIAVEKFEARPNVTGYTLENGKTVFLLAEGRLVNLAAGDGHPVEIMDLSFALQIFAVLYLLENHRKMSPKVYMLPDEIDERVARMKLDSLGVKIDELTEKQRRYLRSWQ
Test: isothermal titration calorimetry
Format: binding
Conditions: iTmSAHase/AMP
REPORTED PROPERTY: Kd (µM)
Express the result in µM but write the number alone.

Dear colleague, I am looking for the recorded Kd of the following molecule: Nc1ncnc2c1ncn2[C@@H]1O[C@H](COP(=O)(O)O)[C@@H](O)[C@H]1O [AMP, adenosine 5′-monophosphate] 30

###

Target: UniProtKB O51933
Assay: isothermal titration calorimetry
Type: binding
Details: iTmSAHase/Ado
REPORTED PROPERTY: pKd
Remember the convention: pKd equals -log10 of concentration in molar.

Dear colleague, I am looking for the recorded pKd of the following compound: Nc1ncnc2c1ncn2[C@@H]1O[C@H](CO)[C@@H](O)[C@H]1O [Ado, adenosine] 4.72
